Measured values drawn from patent US20200376136A1 for this set.

# target.or.system: T1, human six-transmembrane epithelial antigen of prostate 2 (STEAP2) (human, UniProt Q8NFT2 1-490)
# T1 construct: also called hSTEAP2
# T1 sequence: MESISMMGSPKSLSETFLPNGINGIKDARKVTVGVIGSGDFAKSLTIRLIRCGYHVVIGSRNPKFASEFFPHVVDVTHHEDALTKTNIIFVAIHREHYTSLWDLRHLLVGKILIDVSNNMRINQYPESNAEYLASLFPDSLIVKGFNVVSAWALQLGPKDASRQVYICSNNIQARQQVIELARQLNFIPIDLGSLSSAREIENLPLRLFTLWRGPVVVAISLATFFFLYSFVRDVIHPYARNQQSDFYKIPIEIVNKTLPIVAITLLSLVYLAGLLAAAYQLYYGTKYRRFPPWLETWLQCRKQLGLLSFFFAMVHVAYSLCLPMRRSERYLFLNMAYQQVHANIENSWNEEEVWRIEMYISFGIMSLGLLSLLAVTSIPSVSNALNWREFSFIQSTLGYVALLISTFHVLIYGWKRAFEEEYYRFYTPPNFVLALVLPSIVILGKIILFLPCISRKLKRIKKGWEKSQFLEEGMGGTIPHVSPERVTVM
# test: FACS on HEK293 cells (low STEAP2), MFI fold above unstained, average at 100-300 nM antibody
readout.kind: Avg F.A.B (fold above background)
Phrase the answer as number then unit, nothing more needed.

Looking for the measured Avg F.A.B (fold above background) of H1H7810N (antibody, human IgG1, V domains shown) VH: QVQLVESGGGVVQPGRSLRLSCAVSGFTSSTYGMNWVRQAPGKGLEWVAVISYDGSNKYYADSVKGRFTISRDNSKNTLYLQMNSLRPEDTAVYYCARGRYFDLWGRGTLVTVSS VL: DIQMTQSPSTLSASVGDRVTITCRASQIISSWLAWYQQKPGKAPKLLIYKASSLASGVPSRFSGSGSGTEFTLTISSLQPDDFATYYCQQYKSYSYTFGQGTKLEIK , can you help?
3 fold above background
